experimentDescription: in vitro
measurementSetup: human, hek293t cells
reportedMetric: viability at 48 h, 25 µM (%)
# number only, unit % dropped from output

A selection of reference data follows.
Cc1nn(CC(F)(F)F)c(C)c1C1COCCN1C(=O)CCl (centres unmarked); 2.86
CN(CC(=O)Nc1ccc(Cl)c(C(F)(F)F)c1)C(=O)CCl; 0.379
CC(Cl)C(=O)N1CCc2ncsc2C1 (centres unmarked); 92.6
Cc1cc(C)n(C2CN(C(=O)C(C)Cl)C2)n1 (centres unmarked); 85.3
CC(Cl)C(=O)Nc1ccc(C2CC(=O)NC(=O)N2)cc1 (centres unmarked); 92.5

INPUT: Given the entry CC(Cl)C(=O)NCc1ccc(C(=O)Nc2ccc(F)cc2)cc1 (centres unmarked) , report its measured viability at 48 h, 25 µM.
OUTPUT: 76.3

INPUT: Try this compound next: CC(Cl)C(=O)NCC(C)c1nncn1C (centres unmarked)
OUTPUT: 84.8

INPUT: Try this compound next: C=CC(=O)NCCC(=O)N1CCCC1c1cn(C)nc1C (centres unmarked)
OUTPUT: 95.2

INPUT: Try this compound next: CCC(=O)N1CCc2cc(C(=O)CCl)ccc21
OUTPUT: 90.5

INPUT: Try this compound next: CC(Cl)C(=O)Nc1nc(-c2cccc([N+](=O)[O-])c2)cs1 (centres unmarked)
OUTPUT: 59.7

INPUT: Try this compound next: O=C1C=CC(=O)N1c1ccccc1Sc1ccccc1
OUTPUT: 63

Every entry's value here was drawn from paper PMC11995724.
